target: UniProt:P01116; test: Binding to KRAS by surface plasmon resonance (SPR), dissociation constant KD; conditions: Single Cycle Kinetics, 1:1 binding model
Sequence (P01116 1-188 isoform P01116-2): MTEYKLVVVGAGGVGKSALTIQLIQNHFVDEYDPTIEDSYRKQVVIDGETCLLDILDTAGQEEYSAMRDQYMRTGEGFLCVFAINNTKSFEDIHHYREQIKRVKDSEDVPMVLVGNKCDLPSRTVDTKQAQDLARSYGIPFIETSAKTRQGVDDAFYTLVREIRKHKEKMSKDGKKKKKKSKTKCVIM
ENDPOINT_LABEL: Kd

In the examples that follow, each entry is paired with its recorded Kd.
CCO[C@@H]1C[C@H]2C(=O)NC3(CCC3)C(=O)N(C)[C@@H](C3CCCC3)C(=O)N(C)[C@H](C(=O)N(CC)CC)CC(=O)N(C)[C@@H](CC(C)C)C(=O)N[C@@H]([C@@H](C)CC)C(=O)N(C)CC(=O)N(C)[C@H]3C/C=C\CCN(C3=O)[C@@H](Cc3ccc(C)cc3)C(=O)N(C)CC(=O)N[C@@H](CCc3ccc(C(F)(F)F)c(OC)c3)C(=O)N2C1 [PP1887] ... 0.3 nM
CCO[C@@H]1C[C@H]2C(=O)NC3(CC(C)(C)C3)C(=O)N(C)[C@@H](C3CCCC3)C(=O)N(C)[C@H](C(=O)N(C)C)CC(=O)N(C)[C@@H](CC3CCCC3)C(=O)N[C@@H]([C@@H](C)CC)C(=O)N(C)CC(=O)N(C)[C@H]3C/C=C\CCN(C3=O)[C@@H](Cc3ccc(C(F)(F)F)cc3)C(=O)N(C)CC(=O)N[C@@H](CCc3ccc(C(F)(F)F)c(OC)c3)C(=O)N2C1 [PP1565] ... 0.11 nM
CCO[C@@H]1C[C@H]2C(=O)NC3(CCC3)C(=O)N(C)[C@@H](C(CC)CC)C(=O)N(C)[C@H](C)CC(=O)N(C)[C@@H](CC(C)C)C(=O)N[C@@H]([C@@H](C)CC)C(=O)N(C)CC(=O)N(C)[C@H]3C/C=C\CCN(C3=O)[C@@H](Cc3ccc(F)cc3C)C(=O)N(C)CC(=O)N[C@@H](CCc3cc(F)c(C(F)(F)F)c(F)c3)C(=O)N2C1 [PP1524] ... 5.7 nM
CCC[C@H]1C(=O)N[C@@H]([C@@H](C)CC)C(=O)N(C)CC(=O)N(C)[C@H]2C/C=C\CCN(C2=O)[C@@H](Cc2ccc(C)cc2)C(=O)N(C)CC(=O)N[C@@H](CCc2ccc(C(F)(F)F)c(Cl)c2)C(=O)N2C[C@H](C)C[C@H]2C(=O)NC2(CC(C)(C)C2)C(=O)N(C)[C@@H](C2CCCC2)C(=O)N(C)[C@H](C(=O)N(C)CC)CC(=O)N1C [PP1894] ... 0.2 nM
CC[C@H](C)[C@@H]1NC(=O)[C@H](CC2CCC2)N(C)C(=O)C[C@@H](C(=O)N(C)C)N(C)C(=O)[C@H](C2CCCC2)N(C)C(=O)C2(CCCC2)NC(=O)[C@@H]2CCCN2C(=O)[C@H](CCc2cc(F)c(C(F)(F)F)c(F)c2)NC(=O)CN(C)C(=O)[C@H](Cc2ccc(C(F)(F)F)cc2)N2C[C@H](C)CC[C@@H](C2=O)N(C)C(=O)CN(C)C1=O [PP1386] ... 0.082 nM

Incoming: Kd lookup needed for CCO[C@@H]1C[C@H]2C(=O)NC3(CCC3)C(=O)N(C)[C@@H](C(CC)CC)C(=O)N(C)[C@H](C(=O)N(C)C)CC(=O)N(C)[C@@H](CC)C(=O)N[C@@H]([C@@H](C)CC)C(=O)N(C)CC(=O)N(C)[C@H]3C/C=C\CCN(C3=O)[C@@H](Cc3ccc(C(F)(F)F)cc3)C(=O)N(C)CC(=O)N[C@@H](CCc3cc(F)c(C(F)(F)F)c(F)c3)C(=O)N2C1 [PP1200] , thanks.
Outgoing: 0.2 nM

Incoming: Endpoint output: Kd of CCCOC[C@H]1C(=O)N[C@@H]([C@@H](C)CC)C(=O)N(C)CC(=O)N(C)[C@H]2C/C=C\CCN(C2=O)[C@@H](Cc2ccc(C)cc2)C(=O)N(C)CC(=O)N[C@@H](CCc2cc(F)c(C(F)(F)F)c(F)c2)C(=O)N2C[C@H](OCC)C[C@H]2C(=O)NC2(CCCC2)C(=O)N(C)[C@@H](C2CCCC2)C(=O)N(C)[C@H](C(=O)N2CCCC2)CC(=O)N1C [PP1401] . Value?
Outgoing: 0.26 nM
